Where do these numbers come from? They come from patent US20140087995A1.

Biological target: T1, rat amylin receptor (rat calcitonin receptor + rat RAMP 3) (rat, UniProt P32214 25-516; Q9JJ73 23-147)
T1 construct: whole, on cells; Membranes prepared from transiently transfected BHK tk'ts 13 cells; also called rAmylin-R; rat amylin 3(a) receptor
T1 sequence (looked up) 1: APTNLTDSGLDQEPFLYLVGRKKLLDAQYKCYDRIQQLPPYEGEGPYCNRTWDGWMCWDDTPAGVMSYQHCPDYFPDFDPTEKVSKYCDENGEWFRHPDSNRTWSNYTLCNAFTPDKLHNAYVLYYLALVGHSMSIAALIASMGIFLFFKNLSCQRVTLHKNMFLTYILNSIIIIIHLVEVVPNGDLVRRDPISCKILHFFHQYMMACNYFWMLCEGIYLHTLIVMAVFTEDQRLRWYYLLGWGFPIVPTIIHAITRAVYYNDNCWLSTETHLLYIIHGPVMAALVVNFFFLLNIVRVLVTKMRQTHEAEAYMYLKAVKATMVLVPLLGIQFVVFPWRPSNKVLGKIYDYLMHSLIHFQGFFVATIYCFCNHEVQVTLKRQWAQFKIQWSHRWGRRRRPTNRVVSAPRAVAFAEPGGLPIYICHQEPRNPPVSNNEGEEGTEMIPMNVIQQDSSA
T1 sequence (looked up) 2: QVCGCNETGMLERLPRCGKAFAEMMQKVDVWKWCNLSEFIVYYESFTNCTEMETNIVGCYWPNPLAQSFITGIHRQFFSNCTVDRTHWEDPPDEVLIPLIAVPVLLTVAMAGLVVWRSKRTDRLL
Assay: SPA competition vs 125I-rat amylin, membranes (Assay VI)
pIC50: −log10 of the molar value. Numbered stars: 1 amine (or outer) side, 2 acyl side, 3 side chain; on linkers, the order of the positions; unused ones are H or OH. Bridge positions count the residues as written; N and C are the ends. Side chains are listed from the residue outwards. Ends that are not written are not given here. * marks the point of attachment. C20 diacid = O=C(O)CCCCCCCCCCCCCCCCCCC(=O)*; γGlu = O=C(O)[C@H](CCC(=O)[*:2])N[*:1]
Measurement kind: pIC50

Binder | Recorded value
{C20 diacid-γGlu}-GRCNTATCATQRLAAFLRHSSPNFGAIPSSTNVGPNTY-NH2 (disulfide 3-8) | 9.36
K([γGlu-γGlu-C20 diacid])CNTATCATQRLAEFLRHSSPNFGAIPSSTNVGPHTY-NH2 (disulfide 2-7 (inferred)) | 9.54
K([γGlu-γGlu-C20 diacid])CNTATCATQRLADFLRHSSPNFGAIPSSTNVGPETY-NH2 (disulfide 2-7) | 9.49

P = K([γGlu-γGlu-C20 diacid])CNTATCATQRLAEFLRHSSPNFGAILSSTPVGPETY-NH2 (disulfide 2-7)
Q = K([γGlu-γGlu-C20 diacid])CNTATCATQRLAEFLRHSSPNFGAIPSSTNVGPETY-NH2 (disulfide 2-7 (inferred))
R = K([γGlu-γGlu-C20 diacid])CNTATCATQRLADFLRHSSPNFGAIPSSTNVGPRTY-NH2 (disulfide 2-7, also called compound 130)
S = K([γGlu-C20 diacid])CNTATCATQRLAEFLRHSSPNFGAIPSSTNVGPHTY-NH2 (disulfide 2-7)
Challenge: Ascending by pIC50, please. Give the labels in the order specified.
Response given: R, P, Q, S
